Origin of the recorded values: BindingDB's records for PubMed 10869410

# targetUnderTest: 5-hydroxytryptamine receptor 1A (Homo sapiens, UniProt P08908)
# Sequence (P08908 whole entry): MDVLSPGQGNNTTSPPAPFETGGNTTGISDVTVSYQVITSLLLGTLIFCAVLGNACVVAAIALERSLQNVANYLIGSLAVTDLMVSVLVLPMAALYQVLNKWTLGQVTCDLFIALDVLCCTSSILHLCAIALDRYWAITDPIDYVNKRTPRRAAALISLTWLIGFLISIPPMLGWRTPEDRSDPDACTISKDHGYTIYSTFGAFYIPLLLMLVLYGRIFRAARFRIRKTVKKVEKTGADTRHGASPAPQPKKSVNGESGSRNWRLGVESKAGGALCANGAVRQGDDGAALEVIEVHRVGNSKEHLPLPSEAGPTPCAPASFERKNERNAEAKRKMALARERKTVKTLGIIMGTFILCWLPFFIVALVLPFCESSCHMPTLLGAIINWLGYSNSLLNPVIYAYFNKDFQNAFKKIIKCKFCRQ
pKi: −log10 of the molar value.
measurementType: pKi

>>> observedmeasurement("N#Cc1ccc2c(c1)[C@H]1CN(CCCCNC(=O)c3ccc(-c4ccccc4)cc3)C[C@@H]1CO2")
6.00

---

Recorded Ki values (D(4) dopamine receptor (Homo sapiens)) are given below.
measurementType: Ki

>>> observedmeasurement("N#Cc1ccc2c(c1)[C@H]1CN(CCCCNC(=O)c3ccc(-c4ccccc4)cc3)C[C@@H]1CO2 [S33084]")
"2000 nM"
>>> observedmeasurement("OC1(c2ccc(Cl)cc2)CCN(Cc2c[nH]c3ccccc23)CC1 [L741,626]")
"316 nM"
>>> observedmeasurement("CCCN(CCC)C1CCc2cc(CS(=O)(=O)c3ccc(OC)cc3)ccc2C1 (stereo not drawn) [GR218231]")
"> 10000 nM"
